Where these numbers come from: patent US8772500B2

ASSAY NOTES: In vitro human microsomal stability assay
Format: in vitro ADME
SETUP CONDITIONS: human, 0.5 h, 0.5 μM, pH 7.4
RECORDED ENDPOINT: HUMAN MICROSOMAL STABILITY (% REMAINING AFTER 30 MINUTES) (%)

> print(dat)
                                   compound  measured
1  OC(CC1(c2ccc(OC(F)(F)F)cc2)CCC1)c1ccccn1 (centres unmarked) [Example 76]        39

[I] O[C@H](c1ncccn1)C1(c2ccc(C(F)(F)F)cc2)CCC1 [Example 41]
[II] OC(C1CCc2cccnc21)C1(c2cccc(OC(F)(F)F)c2)CCC1 (centres unmarked) [Example 190]
### Prompt Consider entries I and II . Which has the numerically lower HUMAN MICROSOMAL STABILITY (% REMAINING AFTER 30 MINUTES)? Indicate your choice by writing its label.
### Response II

---

Catalogue of pIC50 readings, one per entry.
ASSAY TARGET: human TRPV3 (Homo sapiens)
Construct: expressed in transfected cells
Sequence (Q8NET8 whole entry): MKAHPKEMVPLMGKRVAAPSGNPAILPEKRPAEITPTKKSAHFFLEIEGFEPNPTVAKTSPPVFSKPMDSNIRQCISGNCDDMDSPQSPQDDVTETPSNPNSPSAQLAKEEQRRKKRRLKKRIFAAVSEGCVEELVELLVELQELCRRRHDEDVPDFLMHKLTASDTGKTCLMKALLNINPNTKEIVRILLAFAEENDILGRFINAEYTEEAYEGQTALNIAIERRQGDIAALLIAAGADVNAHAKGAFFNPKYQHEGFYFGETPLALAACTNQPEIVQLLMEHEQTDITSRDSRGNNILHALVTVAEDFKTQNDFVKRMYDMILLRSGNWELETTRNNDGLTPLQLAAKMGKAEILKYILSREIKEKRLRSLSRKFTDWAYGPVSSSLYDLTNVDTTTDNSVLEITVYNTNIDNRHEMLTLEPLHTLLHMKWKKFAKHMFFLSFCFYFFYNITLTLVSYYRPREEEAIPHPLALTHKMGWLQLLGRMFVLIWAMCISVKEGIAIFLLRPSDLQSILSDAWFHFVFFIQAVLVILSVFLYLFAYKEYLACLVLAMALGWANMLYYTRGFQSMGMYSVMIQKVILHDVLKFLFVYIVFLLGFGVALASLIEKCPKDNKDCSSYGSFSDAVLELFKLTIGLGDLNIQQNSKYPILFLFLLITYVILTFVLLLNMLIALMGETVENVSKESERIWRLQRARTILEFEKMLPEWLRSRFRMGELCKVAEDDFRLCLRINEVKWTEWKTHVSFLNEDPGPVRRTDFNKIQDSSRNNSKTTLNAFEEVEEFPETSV
ASSAY NOTES: In vitro antagonism of recombinant human TRPV3 activation (FLIPR Tetra calcium assay, 2-APB as agonist)
Format: cell-based
SETUP CONDITIONS: HEK293 cells stably expressing human TRPV3; 2-APB 80 μM; range class; read-out: IC50 (reported range)
Experimental: Test compounds were evaluated for ability to antagonize the activation of recombinant human TRPV3 using FLIPR® Tetra cellular screening. […] A double-addition protocol was used. […] Each test compound evaluated was first dissolved in DMSO to prepare a 10 mM stock solution. […] Changes in fluorescence were measured over time using the FLIPR® instrument. The intensity of the fluorescence was captured and digitally transferred to an interfaced computer. […]
pIC50: −log10 of the molar value.

The following compounds have reported results that may help.
> print(dat)
                                   compound                assay.target  recorded.endpoint      measured
1  Cc1cc(C(F)(F)F)cc(C2([C@@H](O)c3ccccn3)CC(=O)C2)n1 [Example 291]  human TRPV3 (Homo sapiens)              pIC50  4.70 to 5.29
2  O[C@H](c1ccccn1)C1(c2cc(C(F)(F)F)ccn2)CC(F)(F)C1 [Example 126]  human TRPV3 (Homo sapiens)              pIC50  6.00 to 6.30
3  OC(CC1(c2ccc(F)cc2)CCC1)c1ccccn1 (stereo not drawn) [Example 70]  human TRPV3 (Homo sapiens)              pIC50  4.70 to 5.29
4  NC1CCCCC1C(O)C1(c2cccc(C(F)(F)F)c2)CCC1 (stereo not drawn) [Example 212]  human TRPV3 (Homo sapiens)              pIC50  5.30 to 5.96
5  COC1(OC)CC(c2ccc(OC(F)(F)F)cc2)(C(O)c2ccccn2)C1 (stereo not drawn) [Example 129]  human TRPV3 (Homo sapiens)              pIC50  6.30 to 7.30
6  OC(c1ccccn1)C1(Cc2cccc(F)c2)CCC1 (stereo not drawn) [Example 254]  human TRPV3 (Homo sapiens)              pIC50  5.30 to 5.96
7  CC(c1ccc(F)cc1)C1(C(O)c2ccccn2)CCC1 (stereo not drawn) [Example 46]  human TRPV3 (Homo sapiens)              pIC50  4.70 to 5.29
8  OC(c1ccccn1)C1(c2ccc(Cc3ccccc3)cc2)CCC1 (stereo not drawn) [Example 25]  human TRPV3 (Homo sapiens)              pIC50  5.30 to 5.96

Pending compound:
### Prompt Consider the compound OC(c1ccccn1)C1(c2ccc(Cl)c(Cl)c2)CC(F)(F)C1 (stereo not drawn) [Example 82] . State its measured pIC50.
### Response 6.00 to 6.30
